# tested-on: human S1P1 receptor (Homo sapiens, UniProt P21453)
# Construct: membranes used
# Sequence (P21453 whole entry): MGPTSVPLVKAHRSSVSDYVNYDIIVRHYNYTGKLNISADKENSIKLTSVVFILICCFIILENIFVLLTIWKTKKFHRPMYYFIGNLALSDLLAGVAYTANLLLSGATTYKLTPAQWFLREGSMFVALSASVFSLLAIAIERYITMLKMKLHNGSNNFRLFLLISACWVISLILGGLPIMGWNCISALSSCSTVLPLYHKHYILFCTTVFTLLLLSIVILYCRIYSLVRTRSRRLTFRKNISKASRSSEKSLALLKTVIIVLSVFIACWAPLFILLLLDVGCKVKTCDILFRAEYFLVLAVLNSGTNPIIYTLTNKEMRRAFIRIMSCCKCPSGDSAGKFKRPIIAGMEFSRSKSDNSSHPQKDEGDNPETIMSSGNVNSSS
# protocol-text: GTP γ35S binding assay for S1P1 activity
# study-conditions: membranes of cells stably expressing S1P1 receptor, agonist potency, test range 0.08 to 5,000 nM
property-label: EC50 (nM)

compound: Cc1ccc(CC(c2cncc(Cl)c2)c2nc(-c3ccc(CN4CC(C(=O)O)C4)cc3)no2)cc1C (centres unmarked)
tested-on: human S1P1 receptor (Homo sapiens, UniProt P21453)
unit-spec: nM
EC50: 29.9

P: Cc1ccc(CC(c2cccc(C(F)(F)F)c2)c2nc(-c3ccc(CN4CC(C(=O)O)C4)cc3)no2)cc1C (centres unmarked)
Q: Cc1ccc(CC(c2nc(-c3ccc(CN4CC(C(=O)O)C4)cc3)no2)c2cccs2)cc1C (centres unmarked)
R: Cc1ccc(CC(c2cccc(Cl)c2)c2nc(-c3ccc(CN4CC(C(=O)O)C4)cc3)no2)cc1C (centres unmarked) [Compound 1]
S: Cc1ccc(CC(c2cc(F)cc(F)c2)c2nc(-c3ccc(CN4CC(C(=O)O)C4)cc3)no2)cc1C (centres unmarked)
Task: Please put the entries in order of rising EC50. List the labels according to the requested ordering.
Output: R, S, P, Q
(R: 3.77 nM, S: 17.1 nM, P: 89.3 nM, Q: 134 nM)

I: Cc1ccc(CC(c2ccsc2)c2nc(-c3ccc(CN4CC(C(=O)O)C4)cc3)no2)cc1C (centres unmarked)
II: Cc1ccc(CC(c2nc(-c3ccc(CN4CC(C(=O)O)C4)cc3)no2)c2cccs2)cc1 (centres unmarked)
III: Cc1cc(C)cc(C(Cc2ccc(C)c(C)c2)c2nc(-c3ccc(CN4CC(C(=O)O)C4)cc3)no2)c1 (centres unmarked)
IV: Cc1ccc(CC(c2cccc(F)c2)c2nc(-c3ccc(CN4CC(C(=O)O)C4)cc3)no2)cc1C (centres unmarked) [Compound 2]
Task: Please put the entries in order of rising EC50. List the labels according to the requested ordering.
Output: IV, I, II, III

A: O=C(O)C1CN(Cc2ccc(-c3noc(C(CC4CCCCC4)c4cccc(Cl)c4)n3)cc2)C1 (centres unmarked)
B: Cc1ccc(CC(c2ccsc2)c2nc(-c3ccc(CN4CC(C(=O)O)C4)cc3)no2)cc1 (centres unmarked)
Task: Hi, I'm comparing A with B and wondering which one has the bigger number for EC50. Any idea? # reply format: chosen label
Output: A
(A: 1240 nM, B: 146 nM)
